Property: log10 IC50; scope: individual compounds
experiment-description: DNDI: Cytotoxicity against L-6 rat myoblasts from skeletal muscle cells
Assay type: toxicity, cell-based, L6
run-conditions: L-6 rat skeletal muscle myoblasts
observable: log10 IC50 (log10 of the value in µg/mL)

compound | recorded-measurement
CCCCCC(C)NCc1coc(-c2ccc(Br)cc2)n1 (stereo unspecified) | 1.10
CCCCCC(C)NCc1coc(-c2ccccc2)n1 (stereo unspecified) | 1.16
O/N=C(\NCC1CC1)c1ccccc1-c1ccccc1 | 1.86
COc1ccccc1/C(=N/O)NC1CCCCC1 | 1.79
COc1ccc(/C(=N/O)NC2CCCCC2)cc1 | 1.77
O/N=C(\NCC1CCCCC1)c1ccccc1-c1ccccc1 | 1.17
CCCCc1ccc(-c2nc(CN[C@@H]3C[C@@H]4C[C@H]([C@H]3C)C4(C)C)co2)cc1 | 0.51
CCC(CC)N/C(=N\O)c1ccccc1-c1ccccc1 | 1.24
CC1CCC(N/C(=N\O)c2cccnc2Oc2ccccc2Cl)CC1 (stereo unspecified) | 1.70
CCCCCC(C)NCc1coc(-c2ccc(OC)cc2)n1 (stereo unspecified) | 1.20
CCc1ccc(/C(=N/O)NC2CCCCC2)cc1 | 1.73
CCCCCC(C)NCc1coc(-c2ccc(OCC)cc2)n1 (stereo unspecified) | 0.92
CCCCCC(C)NCc1coc(-c2ccc(-c3ccccc3)cc2)n1 (stereo unspecified) | 0.83
O/N=C(\NC1CCCCC1)c1ccccc1-c1ccccc1 | 1.62
O/N=C(\NC1CCCCC1)c1ccccc1 | 1.70
CCCCCC(C)NCc1coc(-c2ccc(CCCC)cc2)n1 (stereo unspecified) | 0.36
O/N=C(/NC1CCCCC1)c1cccnc1Oc1ccccc1F | 1.73
CCCCc1ccc(-c2nc(CNC3CC(C)CC(C)(C)C3)co2)cc1 (stereo unspecified) | 0.24
CCc1cccc(N/C(=N/O)c2ccccc2-c2ccccc2)c1 | 0.99
CCCCCC(C)NCc1coc(-c2ccc(Cl)c(Cl)c2)n1 (stereo unspecified) | 1.12
COc1cccc(/C(=N/O)NC2CCCCC2)c1 | 1.80
CCc1cccc(N/C(=N/O)c2ccc(OC)cc2)c1 | 1.65
CCCCCC(C)NCc1coc(-c2ccc(C)cc2)n1 (stereo unspecified) | 1.10

###

experiment-description: in vitro
run-conditions: mouse, liver microsomes, t (1 / 2)
Description: DNDI: half life in mouse liver microsomes at a concentration of 1uM

compound | half-life at 1 µM (min)
COc1ccc(/C(CNC2CCCCC2)=N/O)cc1 | 4
O/N=C(/NC1CCCCC1)c1cccnc1Oc1ccc(Cl)cc1 | 2
CC(C)(C)CN/C(=N\O)c1ccccc1-c1ccccc1 | 11
CCCCc1ccc(-c2nc(CN3CCOCC3)co2)cc1 | 2
CCCCOc1ccc(-c2nc(CNC[C@@H]3CC[C@H]4C[C@@H]3C4(C)C)co2)cc1 | 9
COc1ccccc1CNC(CCc1ccccc1)c1nc(Cc2ccccc2)c(N2CCCCC2)o1 (configuration not stated) | 2
Cc1ccc(CNC(c2nc(Cc3ccccc3)c(N3CCOCC3)o2)C2CCCCC2)cc1 (configuration not stated) | 4
CCCCCC(C)NCc1coc(-c2ccc(Oc3ccc(F)cc3)cc2)n1 (configuration not stated) | 63
CCCCCC(C)NCc1coc(-c2ccc(Oc3ccc(OC)cc3)cc2)n1 (configuration not stated) | 34
Cc1ccc(CNC(CC(C)C)c2nc(Cc3ccccc3)c(N3CCOCC3)o2)cc1 (configuration not stated) | 5
Cc1ccc(/C(=N/O)NC2CCCCC2)c(Oc2ccc(C(C)(C)C)cc2)n1 | 8.61
CCCCCC(C)NCc1coc(-c2ccc(C3CCCCC3)cc2)n1 (configuration not stated) | 232
CCCCCOc1ccc(-c2nc(CNC3[C@H]4C[C@@H]5C[C@@H](C[C@H]3C5)C4)co2)cc1 (some centres not stated) | 32
CCCCCC(C)NCc1coc(-c2ccc(C)c(OC)c2)n1 (configuration not stated) | 10
CCCCc1ccc(-c2nc(CNC(C)C)co2)cc1 | 17
CC1CC(NCc2coc(-c3ccc(-c4ccccc4)cc3)n2)CC(C)(C)C1 (configuration not stated) | 154
CCCCCC(C)NCc1coc(-c2ccc(OC(CC)CC)cc2)n1 (configuration not stated) | 476
CCCCCC(C)NCc1coc(-c2ccc(Oc3ccc(Cl)cc3)cc2)n1 (configuration not stated) | 313
CCCCCC(C)NCc1coc(-c2ccc(OCC)cc2)n1 (configuration not stated) | 23
CCCCCOc1ccc(-c2nc(CNC(C)CCCCC)co2)cc1 (configuration not stated) | 68
CCCCCC(C)NCc1coc(-c2ccc(OCCC)cc2)n1 (configuration not stated) | 27
CCOc1ccc(-c2nc(CNC[C@@H]3CC[C@H]4C[C@@H]3C4(C)C)co2)cc1 | 10

###

experiment-description: DNDI: Cytotoxicity against L929 mouse fibroblasts, 72 hour.
Assay type: toxicity, cell-based
run-conditions: mouse, L929 mouse fibroblasts

compound | qualifying-sign | IC50 at 72 h, µg/mL
COc1cccc(OC)c1CNCc1coc(-c2ccc(C(C)(C)C)cc2)n1 | = | 2.07
C[C@@H]1[C@H]2C[C@@H](C[C@H]1NCc1coc(-c3ccc(OC4CCCCC4)cc3)n1)C2(C)C | = | 1.59
CCCCc1ccc(-c2nc(CNC3CCN(Cc4ccccc4)CC3)co2)cc1 | = | 0.96
CCCCCC(C)NCc1coc(-c2cccc(Cl)c2)n1 (stereo not given) | = | 7.27
COc1ccc(/C(=N/O)Nc2cccc(C(C)(C)C)c2)cc1 | = | 3.91
CCc1cccc(N/C(=N\O)c2ccc(C)nc2Oc2cc(Cl)ccc2Cl)c1 | = | 4.7
CN(C)CCCNc1cc(-c2ccccc2)nc2cc(-c3ccc(F)cc3)nn12 | = | 2.57
Cc1ccc(CNC(c2nc(Cc3ccccc3)c(N3CCOCC3)o2)C2CC2)cc1 (stereo not given) | > | 10
CC1CC(NCc2coc(-c3ccc(C(C)(C)C)cc3)n2)CC(C)(C)C1 (stereo not given) | > | 50
C#[N+]C(C(=O)N1CCOCC1)C(C)C (stereo not given) | > | 10

###

experiment-description: DNDI: Cytotoxicity against L929 mouse fibroblasts, 72 hour.
Format: toxicity, cell-based
run-conditions: mouse, L929 mouse fibroblasts
observable: IC50 at 72 h (µg/mL)

molecule | qualifying-sign | recorded-measurement
Fc1ccc(-c2cc3nc(-c4ccccc4)cc(N4CCNCC4)n3n2)cc1 | = | 0.73
Fc1ccc(-c2cc3nc(-c4ccccc4)cc(NCCCN4CCOCC4)n3n2)cc1 | > | 10
CCCCCC(C)NCc1coc(-c2ccc(F)cc2)n1 (stereo not given) | = | 7.1
CC1(C)[C@H]2CC[C@@H](CNCc3coc(-c4ccc(Br)cc4)n3)[C@@H]1C2 | = | 50
Cc1cc(N2CCNCC2)n2nc(-c3cccc(F)c3)cc2n1 | = | 9.09

###

experiment-description: DNDI: % of compound remaining in mouse S9 microsomes at a concentration of 1uM after 60 mins
Format: ADME, subcellular, Liver, S9 fraction
Property: remaining at 1 h, 1 µM; scope: individual molecules

molecule | unit-tag | remaining at 1 h, 1 µM
CCCCCOc1ccc(-c2nc(CNC(C)CCCCC)co2)cc1 (stereo not drawn) | % | 49.7
CC1CC(NCc2coc(-c3ccc(-c4ccccc4)cc3)n2)CC(C)(C)C1 (stereo not drawn) | % | 112
O/N=C(\NC1CCCCC1)c1ccccc1-c1ccccc1 | % | 6.85

###

tested-system: MDR1 (ABCB1) (Homo sapiens, UniProt P08183)
Sequence (P08183 whole entry): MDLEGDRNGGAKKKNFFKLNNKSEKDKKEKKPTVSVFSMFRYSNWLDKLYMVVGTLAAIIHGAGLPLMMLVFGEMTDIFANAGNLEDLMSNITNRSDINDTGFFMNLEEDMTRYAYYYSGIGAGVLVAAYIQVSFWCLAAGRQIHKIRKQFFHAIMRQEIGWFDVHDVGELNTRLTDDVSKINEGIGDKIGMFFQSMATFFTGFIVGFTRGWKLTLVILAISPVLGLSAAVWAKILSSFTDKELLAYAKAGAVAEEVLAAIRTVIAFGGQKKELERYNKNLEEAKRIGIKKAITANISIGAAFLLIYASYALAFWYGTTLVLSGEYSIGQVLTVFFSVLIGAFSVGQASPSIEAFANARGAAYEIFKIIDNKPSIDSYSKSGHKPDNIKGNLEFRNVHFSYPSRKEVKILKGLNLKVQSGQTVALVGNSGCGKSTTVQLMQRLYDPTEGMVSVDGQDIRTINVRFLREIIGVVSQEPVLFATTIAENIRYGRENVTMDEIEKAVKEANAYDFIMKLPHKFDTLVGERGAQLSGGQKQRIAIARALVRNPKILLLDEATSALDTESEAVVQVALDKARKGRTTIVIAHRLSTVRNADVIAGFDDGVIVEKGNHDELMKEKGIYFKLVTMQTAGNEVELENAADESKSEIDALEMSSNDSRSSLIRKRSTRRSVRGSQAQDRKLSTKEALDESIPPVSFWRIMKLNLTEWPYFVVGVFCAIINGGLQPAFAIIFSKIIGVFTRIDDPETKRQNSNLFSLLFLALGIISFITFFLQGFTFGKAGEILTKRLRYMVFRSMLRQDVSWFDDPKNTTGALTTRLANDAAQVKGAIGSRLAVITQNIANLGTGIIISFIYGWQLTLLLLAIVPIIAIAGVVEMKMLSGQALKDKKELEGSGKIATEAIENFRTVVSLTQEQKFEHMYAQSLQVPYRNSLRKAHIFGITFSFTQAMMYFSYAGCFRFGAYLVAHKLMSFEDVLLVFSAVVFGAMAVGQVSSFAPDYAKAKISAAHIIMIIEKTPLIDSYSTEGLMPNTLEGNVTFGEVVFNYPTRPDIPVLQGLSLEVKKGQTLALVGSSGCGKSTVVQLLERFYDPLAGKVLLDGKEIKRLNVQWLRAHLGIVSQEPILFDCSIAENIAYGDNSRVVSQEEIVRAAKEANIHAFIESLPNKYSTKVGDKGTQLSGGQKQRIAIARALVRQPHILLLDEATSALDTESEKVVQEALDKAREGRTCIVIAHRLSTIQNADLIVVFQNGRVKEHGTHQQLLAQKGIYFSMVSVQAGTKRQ
experiment-description: DNDI: Apparent permeability from basolateral to apical side of the MDCK cell transfected with human MDR1 after 60 mins at a concentration of 3uM
Assay type: ADME, cell-based, Canis lupus familiaris
run-conditions: dog

compound | Papp B→A at 1 h, 3 µM
CCOc1ccc(-c2nc(CNC[C@@H]3CC[C@H]4C[C@@H]3C4(C)C)co2)cc1 | 6.74 ×10⁻⁶ cm/s
CCCCCC(C)NCc1coc(-c2ccc(OCC)cc2)n1 (stereo not given) | 22 ×10⁻⁶ cm/s
O/N=C(/NC1CCCCC1)c1cccnc1Oc1ccccc1Cl | 34.8 ×10⁻⁶ cm/s
COc1ccccc1Oc1ncccc1/C(=N\O)NC1CCCCC1 | 48.3 ×10⁻⁶ cm/s
O/N=C(/NC1CCCCC1)c1cccnc1Oc1ccccc1 | 51.4 ×10⁻⁶ cm/s

###

Property: Papp A→B; scope: individual molecules
tested-system: MDR1 (ABCB1) (Homo sapiens, UniProt P08183)
experiment-description: DNDI: Apparent permeability from apical to basolateral side of the MDCK cell transfected with human MDR1
Type: ADME, cell-based, Canis lupus familiaris
run-conditions: dog

molecule | unit-tag | Papp A→B
O/N=C(/NC1CCCCC1)c1cccnc1Oc1ccccc1 | ×10⁻⁶ cm/s | 30.9
CCOc1ccc(-c2nc(CNC[C@@H]3CC[C@H]4C[C@@H]3C4(C)C)co2)cc1 | ×10⁻⁶ cm/s | 8.16
COc1ccccc1Oc1ncccc1/C(=N\O)NC1CCCCC1 | ×10⁻⁶ cm/s | 18.4
CCCCCC(C)NCc1coc(-c2ccc(OCC)cc2)n1 (stereo not given) | ×10⁻⁶ cm/s | 20.9
O/N=C(/NC1CCCCC1)c1cccnc1Oc1ccccc1Cl | ×10⁻⁶ cm/s | 30.2
